test system: U2OS; assay: Incucyte cell viability with U2OS; type: toxicity, cell-based; conditions: human, 24 h, 10 µM, compound concentration 10 uM, replicate number 1; further: unitless GR value; below 1 slowed growth and below 0 cell loss
The entries below come with measured Growth Rate values attached.
Just the number.

Recorded Growth Rate, per entry:
FC(F)(F)c1ccc(CNc2ccc(Cc3c[nH]c4ncc(Cl)cc34)cn2)cn1 ... 0.95
CN(CCCCCCC1=C(c2cc(F)cc(F)c2)CCCc2cc(O)ccc21)CCCCS(=O)(=O)CCCC(F)(F)F ... -0.72
Cn1cc(-c2cnc3ccc4ccc(CS(=O)(=O)NCc5ccccn5)cc4c(=O)c3c2)cn1 ... 0.81

In: Growth Rate for `CCN1/C(=C/C(C)=O)Sc2ccc(OC(C)=O)cc21` ?
Out: 0.98

In: Requested read-out: Growth Rate. Entry: `CN(C)C/C=C/C(=O)Nc1cc2c(Nc3ccc(F)c(Cl)c3)ncnc2cc1OC[C@@H]1CCCO1`
Out: -0.17

In: What does the data say about its Growth Rate? Entry: `Cl.Cl.Nc1nccc(-c2c(-c3ccc(F)cc3)ncn2C2CCCCC2)n1`
Out: 0.95

In: Entry `COc1cc(-c2cc3ncccc3c(OC[C@H]3CNC(=O)C3)n2)cc(OC)c1OC1CCOCC1.O=C(O)C(F)(F)F` : reported Growth Rate = ?
Out: 0.68

In: What value of measured Growth Rate is listed for `CCn1c(-c2ccncc2)cc2c1CCNC2=O` ?
Out: 0.13

In: For the compound shown here, `CCCOc1cnc(CN/C=C2\C(=O)NC(=O)c3ccc(I)cc32)cc1O` , give the reported Growth Rate.
Out: 0.07

====

system: Fibroblast; experiment: Incucyte cell viability with human fibroblast; format: toxicity, cell-based; details: 12 h, 10 µM, compound concentration 10 uM, replicate number 2; further: unitless GR value; below 1 slowed growth and below 0 cell loss
Returns: string. Value is criterion met if measured Growth Rate is below 0.4, and criterion not met if it is greater than or equal to it.

COc1cc(N2CCN(C)CC2)ccc1Nc1ncc2c(n1)N(C)c1ccccc1C(=O)N2CC(F)(F)F ... criterion not met

In: Hello, I'm reviewing records and need to know if Growth Rate of Cc1nc2ccccc2c(-c2ccc3c4c(ccnc24)CCO3)c1[C@H](OC(C)(C)C)C(=O)O [BI-224436] is below 0.4. Could you check?
Out: criterion not met

In: In the record for O=C(NC1CCNCC1)c1n[nH]cc1NC(=O)c1c(Cl)cccc1Cl [AT-7519] , is Growth Rate less than 0.4?
Out: criterion met

====

tested on: HEK-293T; test: Incucyte cell viability with HEK293T; format: toxicity, cell-based; conditions: human, 24 h, 10 µM, compound concentration 10 uM, replicate number 2; further: unitless GR value; below 1 slowed growth and below 0 cell loss
assay_readout: Growth Rate
// no unit string in output, number only

As a guide, the following entries are already answered.
COc1c(OCCCN2CCOCC2)ccc2c1N=C(NC(=O)c1cnc(N)nc1)N1CCN=C21 ... -0.04
COC[C@@H](CC(C)C)NC1=N/C(=C\c2ccc3ncsc3c2)C(=O)N1C ... 0.6
O=C(NNC(=O)c1ccc(CNS(=O)(=O)c2ccc(F)c(Cl)c2)cc1)c1ccccc1 ... 0.83
N#CN1CC[C@H](C(=O)Nc2nc3c(s2)CN(C(=O)CN=[N+]=[N-])CC3)C1 ... 0.94
Cl.O=C1c2cccc3c2[C@H](CCC3)CN1[C@@H]1CN2CCC1CC2 [PALONOSETRON HYDROCHLORIDE] ... 0.19

In: Quick one: Growth Rate of `CCCC(=O)C1CCN(c2ncnc3c2CN(C(=O)c2ccc(-c4ccccc4)cc2)CC3)CC1` ?
Out: 0.74

In: If you can, please state the reported Growth Rate value of `COc1ccc(-n2nc(C(F)(F)F)cc2-c2ccc(Cl)cc2)cc1` .
Out: 0.9

In: Need Growth Rate, item `CC(C)c1nc2c(c3c1[C@H](c1ccc(C(F)(F)F)cc1)OC31CCOCC1)[C@H](O)CC(C)(C)C2`
Out: 0.94

In: Would you kindly share the measured Growth Rate for `CCCCCCCN(CCc1ccc(SC(C)(C)C(=O)O)cc1)C(=O)Nc1ccc(F)cc1F` ?
Out: 0.55

In: Please give the measured Growth Rate for this compound: `Nc1ncnc2c1c(I)cn2[C@@H]1O[C@H](CO)[C@@H](O)[C@H]1O`
Out: -0.16

In: May I ask what Growth Rate has been recorded for CC(CNS(=O)(=O)C(C)C)c1ccc(-c2ccc(C#N)cc2)cc1 (configuration not stated) ?
Out: 0.22

In: Recorded Growth Rate for `NC(=O)OC[C@H](NC(=O)Cn1nc(-c2ccc(Cl)cc2)n(C[C@H](O)C(F)(F)F)c1=O)c1cccc(C(F)(F)F)c1` , please?
Out: 0.79
